Listed here are compounds together with their documented IC50.
Target: βTrCP (Homo sapiens)
Sequence (Q9Y297 whole entry): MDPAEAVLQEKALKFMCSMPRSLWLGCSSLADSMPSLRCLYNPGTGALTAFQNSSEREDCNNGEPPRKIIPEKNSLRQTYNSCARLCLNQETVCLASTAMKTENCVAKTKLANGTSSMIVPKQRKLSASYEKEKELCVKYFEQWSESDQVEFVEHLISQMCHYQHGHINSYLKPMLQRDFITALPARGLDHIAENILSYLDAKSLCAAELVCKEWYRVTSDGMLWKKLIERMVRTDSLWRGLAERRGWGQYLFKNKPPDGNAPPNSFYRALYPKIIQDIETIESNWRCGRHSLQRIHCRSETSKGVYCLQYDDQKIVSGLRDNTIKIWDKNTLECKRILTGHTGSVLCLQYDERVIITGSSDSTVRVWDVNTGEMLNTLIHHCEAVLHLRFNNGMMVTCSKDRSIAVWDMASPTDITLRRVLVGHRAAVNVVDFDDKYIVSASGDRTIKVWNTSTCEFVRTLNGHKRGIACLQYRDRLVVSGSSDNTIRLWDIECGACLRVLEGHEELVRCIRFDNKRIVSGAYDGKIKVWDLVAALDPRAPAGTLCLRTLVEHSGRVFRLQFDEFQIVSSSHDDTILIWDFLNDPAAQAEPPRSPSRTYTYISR
Sequence (P63208 whole entry partner): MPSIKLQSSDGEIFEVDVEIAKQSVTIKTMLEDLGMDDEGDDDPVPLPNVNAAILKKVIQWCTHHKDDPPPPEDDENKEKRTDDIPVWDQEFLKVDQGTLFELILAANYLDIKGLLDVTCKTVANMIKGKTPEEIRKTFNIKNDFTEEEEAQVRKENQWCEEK
Test: Fluorescence polarisation (FP) binding assay with fluorescein-tagged IκB peptide
Details: Tables 1, 3, 7, 8; 10 nM fluorescein-tagged IκB peptide; read-out: FP Assay IC50/μM
Non-standard residues stand in square brackets, D forms with d. Residues, ends and D or L forms follow the SMILES beside them. pS = N[C@@H](COP(=O)(O)O)C(=O)O

For record CC[C@H](C)[C@H](NC(=O)CNC(=O)[C@H](CCC(=O)O)NC(=O)[C@H](N)CC(=O)O)C(=O)N[C@@H](Cc1ccccc1)C(=O)N[C@@H](CC(=O)O)C(N)=O [dEGIFD-NH2] (H-[dD]EGIFD-NH2) the listed IC50 is > 100 µM

More entries:
For record CC[C@H](C)[C@H](NC(=O)CNC(=O)[C@H](C)NC(=O)[C@H](N)CC(=O)O)C(=O)N[C@@H](Cc1ccccc1)C(=O)N[C@@H](CC(=O)O)C(N)=O [dAGIFD-NH2] (H-[dD]AGIFD-NH2) the listed IC50 is > 100 µM

For record CC[C@H](C)[C@H](NC(=O)CNC(=O)[C@H](COP(=O)(O)O)NC(=O)[C@@H](N)CC(=O)O)C(=O)N[C@@H](Cc1ccccc1)C(=O)N[C@@H](Cc1c[nH]cn1)C(N)=O [D-pS-GIFH-NH2] (H-D[pS]GIFH-NH2) the listed IC50 is > 100 µM
